Exercise: state measured β-adrenoceptor blocking action ID50 β2 for each of the compounds provided.
Test system: β2-adrenoceptor
experiment_description: β-adrenoceptor blocking activity: inhibition of the isoproterenol-induced fall in blood pressure in anesthetized rats
Format: in vivo, male Wistar rats
particulars: 50 % inhibition of fall in blood pressure by isoproterenol 0.1 µg/kg i.v.
One number for each entry, in mg/kg i.v..

Please review the following examples before continuing.
[
  {
    "compound": "CC(C)(COc1ccc(NN)nn1)NCC(O)COc1ccccc1C#N (stereo not drawn)",
    "unit_label": "mg/kg i.v.",
    "β-adrenoceptor blocking action ID50 β2": 0.1
  },
  {
    "compound": "Cc1ccccc1OCC(O)CNC(C)(C)COc1ccc(NN)nn1 (stereo not drawn)",
    "unit_label": "mg/kg i.v.",
    "β-adrenoceptor blocking action ID50 β2": 0.45
  },
  {
    "compound": "CC(C)(COc1ccc(NN)nn1)NCC(O)COc1ccccc1Cl (stereo not drawn)",
    "unit_label": "mg/kg i.v.",
    "β-adrenoceptor blocking action ID50 β2": 0.23
  },
  {
    "compound": "Cc1ccc(C#N)c(OCC(O)CNC(C)(C)COc2ccc(NN)nn2)c1 (stereo not drawn)",
    "unit_label": "mg/kg i.v.",
    "β-adrenoceptor blocking action ID50 β2": 0.1
  }
]

Consider now this further compound.
Incoming: Please look at this compound and report its β-adrenoceptor blocking action ID50 β2: CC(C)NCC(O)COc1ccc(CC(N)=O)cc1 (stereo not drawn) [Atenolol, reference compound]
Outgoing: 1.5
